Data provenance is PubChem BioAssay (EPA / NIEHS).

- Read-out: Actin alpha 1 (ACTA1), ACTA1 (gene 58)
- procedure_summary: BSK_MyoF_ACTA1: BioMAP Diversity Plus: MyoF Assay for Actin alpha 1 (ACTA1) Biomarker Activity (AID 2284244)
- condition_info: primary human lung fibroblasts
- Experimental: BSK_MyoF is a cell-based, multiplexed-readout assay that uses lung fibroblasts, […], with measurements taken at 24 hours after chemical dosing in a microplate: 96-well plate.BSK_MyoF_ACTA1 is an assay component measured in the BSK_MyoF assay. […] The levels of cell surface (or secreted, indicated by the prefix "s") biomarker endpoints were measured by ELISA. […] Plates were read after 6 h.
Calls of active or inactive are those of the source. Rule for the calls: active = hit-call score of the fitted dose curve at least 0.9, where 1 is the maximum; inactive = score below 0.9.
Classes used: active, inactive

compound: CC(C)(COCC1CO1)COCC1CO1 (stereo unspecified)
assigned_class: inactive

compound: COCC(=O)N(c1c(C)cccc1C)[C@H](C)C(=O)OC
assigned_class: inactive

compound: Cc1cc(C(C)(C)c2ccc(O)c(C)c2)ccc1O
assigned_class: active

compound: CCOC(=O)CC(=O)CCl
assigned_class: inactive

compound: CCOC(=O)CCN(SN(C)C(=O)Oc1cccc2c1OC(C)(C)C2)C(C)C
assigned_class: active

compound: CC(C)=CC1C(C(=O)OCc2cccc(Oc3ccccc3)c2)C1(C)C (stereo unspecified)
assigned_class: inactive

compound: NC(=O)CCl
assigned_class: inactive

compound: CCN(CC)C(=O)C(Cl)=C(C)OP(=O)(OC)OC
assigned_class: active

compound: CCOC(=O)C(SP(=S)(OC)OC)c1ccccc1 (stereo unspecified)
assigned_class: active

compound: C[C@]12CC[C@@H](O)C[C@@H]1CC[C@@H]1[C@@H]2CC[C@]2(C)C(=O)CC[C@@H]12
assigned_class: inactive

compound: Nc1c(Oc2ccccc2)cc(O)c2c1C(=O)c1ccccc1C2=O
assigned_class: inactive

compound: Oc1c(Br)cc(Br)cc1Br
assigned_class: inactive

compound: CCOP(=S)(OCC)SCS(=O)(=O)C(C)(C)C
assigned_class: inactive

compound: O=C(O)COc1cc(Cl)c(Cl)cc1Cl
assigned_class: inactive

compound: CCOP(=S)(OCC)OP(=S)(OCC)OCC
assigned_class: inactive

compound: CCCCCCCCCCCCN(C)C
assigned_class: inactive

compound: CC(C)(C)c1cc([N+](=O)[O-])cc(C(C)(C)C)c1O
assigned_class: inactive

compound: [Cl][Sn]([c]1ccccc1)([c]1ccccc1)[c]1ccccc1
assigned_class: active

compound: O=S(=O)(C(Cl)(Cl)Cl)C(Cl)(Cl)Cl
assigned_class: active

compound: O=C(CCl)NCO
assigned_class: inactive

compound: O=[N+]([O-])c1ccc(Nc2ccccc2)cc1
assigned_class: inactive

compound: OC(Cc1ccccc1Cl)(Cn1[nH]cnc1=S)C1(Cl)CC1 (stereo unspecified)
assigned_class: active

compound: Oc1ccc(Cc2ccc(O)cc2)cc1
assigned_class: inactive

compound: Cc1cc(Cl)ccc1OC(C)C(=O)O (stereo unspecified)
assigned_class: inactive

compound: c1ccc(-c2cccc(-c3ccccc3)c2)cc1
assigned_class: active

compound: c1ccc2sc(SNC3CCCCC3)nc2c1
assigned_class: inactive

---

- target_of_assay: Cellular tumor antigen p53 (Homo sapiens)
- procedure_summary: ATG_p53_CIS: Attagene CIS-FACTORIAL HepG2 Assay for human p53 Transcription Factor (AID 2282994)
- condition_info: HepG2 p53 cis-element reporter, Attagene mRNA; actives raise or lower the signal
The source made the active and inactive calls. The calls were made as follows: active = hit-call score of the fitted dose curve at least 0.9, where 1 is the maximum; inactive = score below 0.9.
Classes used: active, inactive

molecule: c1cc[c]([Sb]([c]2ccccc2)[c]2ccccc2)cc1
assigned_class: inactive
--
molecule: C=CCOC(F)(C(F)(F)F)C(F)(F)F
assigned_class: inactive
--
molecule: OC[P+](CO)(CO)CO
assigned_class: inactive
--
molecule: CCOC(=O)OC1=C(c2cc(C)ccc2C)C(=O)NC12CCC(OC)CC2 (centres undefined)
assigned_class: inactive
--
molecule: OC(c1ccc(Cl)cc1)(c1ccc(Cl)cc1)c1cccnc1
assigned_class: inactive
--
molecule: CC(C)[C@@H](Nc1ccc(C(F)(F)F)cc1Cl)C(=O)OC(C#N)c1cccc(Oc2ccccc2)c1 (some centres undefined)
assigned_class: inactive
--
molecule: Nc1ccc(Br)cc1
assigned_class: inactive
--
molecule: CCC(C)(C#N)N=NC(C)(C#N)CC (centres undefined)
assigned_class: inactive
--
molecule: FC(F)OCC(F)(F)C(F)(F)F
assigned_class: inactive
--
molecule: O=NN1CCOCC1
assigned_class: inactive
--
molecule: O=S1OC[C@@H]2[C@H](CO1)[C@]1(Cl)C(Cl)=C(Cl)[C@@]2(Cl)C1(Cl)Cl (some centres undefined)
assigned_class: inactive
--
molecule: N#Cc1ccccc1N
assigned_class: inactive
--
molecule: CCOC(=O)CCN(SN(C)C(=O)Oc1cccc2c1OC(C)(C)C2)C(C)C
assigned_class: inactive
--
molecule: Clc1ccc(C(Cl)(Cl)Cl)cn1
assigned_class: inactive
--
molecule: BrCC(Br)c1ccccc1 (centres undefined)
assigned_class: inactive
--
molecule: CN(C)c1ccc(N=O)cc1
assigned_class: active
--
molecule: CCC[CH2][Sn]([Cl])([Cl])[CH2]CCC
assigned_class: inactive
--
molecule: OCCCCO
assigned_class: inactive
--
molecule: NC(=O)c1ccc(N)nc1
assigned_class: inactive
--
molecule: CN(C)[C@@H]1C(=O)C(C(N)=O)=C(O)[C@@]2(O)C(=O)C3=C(O)c4c(O)ccc(Cl)c4[C@@](C)(O)[C@H]3C[C@@H]12
assigned_class: inactive
--
molecule: CN(N=O)C(N)=O
assigned_class: inactive
--
molecule: COCCl
assigned_class: inactive
--
molecule: CCC[CH2][Sn]([CH2]CCC)([CH2]CCC)[CH2]CCC
assigned_class: active
--
molecule: Cc1cc(-c2cc(C)c(N)c(C)c2)cc(C)c1N
assigned_class: active
--
molecule: Cc1cc(C(C)(C)c2ccc(O)c(C)c2)ccc1O
assigned_class: active
--
molecule: CC(O)(CS(=O)(=O)c1ccc(F)cc1)C(=O)Nc1ccc(C#N)c(C(F)(F)F)c1 (centres undefined)
assigned_class: inactive
--
molecule: C=CC(=O)NC(C)(C)CC(C)=O
assigned_class: inactive
--
molecule: C=C(C)[C@@H]1CC=C(C=O)CC1
assigned_class: inactive
--
molecule: CC(C)[N+](=O)[O-]
assigned_class: inactive
--
molecule: O=[N+]([O-])c1cc([As](=O)(O)O)ccc1O
assigned_class: inactive
--
molecule: CCCCS(=O)(=O)Cl
assigned_class: inactive
--
molecule: Clc1cc(C(Cl)(Cl)Cl)cnc1Cl
assigned_class: active
--
molecule: O=C(O)COc1ccc(Cl)cc1
assigned_class: inactive
--
molecule: CCCCCCCCCCCCBr
assigned_class: inactive
--
molecule: CC(C)CP(=S)(S)CC(C)C
assigned_class: inactive
--
molecule: CC(C)(C)c1cc([N+](=O)[O-])cc(C(C)(C)C)c1O
assigned_class: inactive
--
molecule: O=[N+]([O-])c1cccc2ccccc12
assigned_class: inactive
--
molecule: COc1ccc(N)cc1
assigned_class: inactive
--
molecule: CC(c1ccc(O)cc1)c1ccc(O)cc1
assigned_class: inactive

---

- procedure_summary: ATG_Sox_CIS: Attagene CIS-FACTORIAL HepG2 Assay for human SRY-box transcription factor (SOX) (AID 2282960)
- condition_info: HepG2 Attagene cis-factorial SOX reporter, mRNA; actives raise or lower the signal
- Method: ATG_CIS is a cell-based, multiplexed-readout assay that uses HepG2, a human liver cell line, with measurements taken at 24 hours after chemical dosing in a 24-well plate.ATG_Sox_CIS is one of 52 assay component(s) measured or calculated from the ATG_CIS assay. […] This assay endpoint, ATG_Sox_CIS, was analyzed with bidirectional fitting relative to DMSO as the negative control and baseline of activity. […]
Active and inactive are the calls of the source. The calls were made as follows: active = hit-call score of the fitted dose curve at least 0.9, where 1 is the maximum; inactive = score below 0.9.
Classes used: active, inactive

compound: [F][Sn]([c]1ccccc1)([c]1ccccc1)[c]1ccccc1
assigned_class: active
//
compound: O=C(Nc1ccc(Br)cc1)c1cc(Br)cc(Br)c1O
assigned_class: inactive
//
compound: CC(C)[C@@H](Nc1ccc(C(F)(F)F)cc1Cl)C(=O)OC(C#N)c1cccc(Oc2ccccc2)c1 (stereo not given in full)
assigned_class: inactive
//
compound: Oc1ccc(Cc2ccc(O)cc2)cc1
assigned_class: inactive
//
compound: CCCSP(=S)(OCC)Oc1ccc(Cl)cc1Cl (stereo not given)
assigned_class: inactive
//
compound: CC(=O)CN(CC(C)=O)N=O
assigned_class: inactive
//
compound: OC(Cc1ccccc1Cl)(Cn1cncn1)C1(Cl)CC1 (stereo not given)
assigned_class: inactive
//
compound: Cc1ccccc1OP(=O)(Oc1ccccc1)Oc1ccccc1
assigned_class: inactive
//
compound: O=C(NC(=O)c1c(F)cccc1F)Nc1cc(Cl)c(OC(F)(F)C(F)C(F)(F)F)cc1Cl (stereo not given)
assigned_class: inactive
//
compound: Cc1cc(C)cc(C)c1
assigned_class: inactive
//
compound: CCCCC(CC)COC(=O)Cl (stereo not given)
assigned_class: inactive
//
compound: CN(C)C(=S)S
assigned_class: inactive
//
compound: CC(C)(c1ccccc1)c1cc(-n2nc3ccccc3n2)c(O)c(C(C)(C)c2ccccc2)c1
assigned_class: inactive
//
compound: O=C(O)CC(O)(CC(=O)O)C(=O)O
assigned_class: inactive
//
compound: CCCCCCCCCCCCBr
assigned_class: inactive
